Catalogue of sequences with associated EC50
- system tested: LIN28B (UniProt Q6ZN17)
- Sequence: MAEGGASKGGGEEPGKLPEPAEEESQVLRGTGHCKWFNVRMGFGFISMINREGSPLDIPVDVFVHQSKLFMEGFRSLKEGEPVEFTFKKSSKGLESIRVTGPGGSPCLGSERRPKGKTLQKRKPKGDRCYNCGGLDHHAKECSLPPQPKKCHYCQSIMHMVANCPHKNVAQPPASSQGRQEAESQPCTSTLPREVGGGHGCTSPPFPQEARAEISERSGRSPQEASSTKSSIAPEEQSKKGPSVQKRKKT
- protocol notes: EC50 of free RNA motif oligo competing protein binding to immobilised probe
Reply numerically in µM, unit not repeated.

Consider the reported EC50 for these sequences:
{"columns": ["sequence record", "system tested", "obs value"],
 "data": [
  ["AAUAAA", "LIN28B (UniProt Q6ZN17)", 2.92],
  ["CUGUCCU", "LIN28B (UniProt Q6ZN17)", 2.3]
]}

Now look at this one.
Inquiry: Kindly state the measured EC50 obtained for UAUUUAU with LIN28B (UniProt Q6ZN17).
Reply text: 1.47

---

- system tested: CPSF7 (UniProt Q8N684)
- Sequence: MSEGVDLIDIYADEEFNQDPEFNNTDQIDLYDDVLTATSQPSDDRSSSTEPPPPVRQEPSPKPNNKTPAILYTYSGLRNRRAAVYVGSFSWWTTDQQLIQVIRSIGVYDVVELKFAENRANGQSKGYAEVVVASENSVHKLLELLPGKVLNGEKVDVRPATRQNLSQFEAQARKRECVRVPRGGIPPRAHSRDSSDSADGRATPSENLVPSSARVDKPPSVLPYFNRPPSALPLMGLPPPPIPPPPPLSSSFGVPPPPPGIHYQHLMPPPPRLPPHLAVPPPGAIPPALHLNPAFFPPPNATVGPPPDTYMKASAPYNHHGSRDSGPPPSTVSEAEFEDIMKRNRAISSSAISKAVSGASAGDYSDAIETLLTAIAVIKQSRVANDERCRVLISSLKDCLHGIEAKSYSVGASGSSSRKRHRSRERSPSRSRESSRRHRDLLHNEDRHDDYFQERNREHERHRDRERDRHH
- protocol notes: Kd (EC50 corrected by depletion factor)
experimental readout: Kd (µM)
Answer format: numeric, µM implied, no suffix.

Inquiry: Lab note: need Kd with CPSF7 (UniProt Q8N684) for entry AAUAAA , please look it up.
Reply text: 2.1

---

- system tested: IGF2BP2 (UniProt Q9Y6M1)
- Sequence (Q9Y6M1 whole entry): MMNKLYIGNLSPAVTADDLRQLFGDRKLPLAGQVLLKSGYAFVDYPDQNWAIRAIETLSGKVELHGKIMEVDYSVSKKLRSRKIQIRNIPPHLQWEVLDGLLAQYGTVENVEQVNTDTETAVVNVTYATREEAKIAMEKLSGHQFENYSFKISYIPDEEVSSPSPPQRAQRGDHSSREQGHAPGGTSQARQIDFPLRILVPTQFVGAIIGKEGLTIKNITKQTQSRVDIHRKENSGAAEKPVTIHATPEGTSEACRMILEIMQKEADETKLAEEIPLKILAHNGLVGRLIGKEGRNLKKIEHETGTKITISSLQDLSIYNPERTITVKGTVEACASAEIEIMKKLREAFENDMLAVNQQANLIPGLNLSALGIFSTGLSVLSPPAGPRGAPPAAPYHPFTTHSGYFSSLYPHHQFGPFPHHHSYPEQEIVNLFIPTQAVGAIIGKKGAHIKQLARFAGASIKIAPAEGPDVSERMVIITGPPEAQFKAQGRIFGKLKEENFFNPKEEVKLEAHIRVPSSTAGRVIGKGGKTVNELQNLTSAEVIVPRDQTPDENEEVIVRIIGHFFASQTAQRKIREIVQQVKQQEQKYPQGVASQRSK
- protocol notes: Kd (EC50 corrected by depletion factor)
experimental readout: Kd (µM)
Give the value, in units of µM, as a plain number.

Inquiry: What measured Kd is associated with CUGUCCU on IGF2BP2 (UniProt Q9Y6M1)?
Reply text: 0.924

---

- system tested: TARDBP (UniProt Q13148)
- Sequence (Q13148 whole entry): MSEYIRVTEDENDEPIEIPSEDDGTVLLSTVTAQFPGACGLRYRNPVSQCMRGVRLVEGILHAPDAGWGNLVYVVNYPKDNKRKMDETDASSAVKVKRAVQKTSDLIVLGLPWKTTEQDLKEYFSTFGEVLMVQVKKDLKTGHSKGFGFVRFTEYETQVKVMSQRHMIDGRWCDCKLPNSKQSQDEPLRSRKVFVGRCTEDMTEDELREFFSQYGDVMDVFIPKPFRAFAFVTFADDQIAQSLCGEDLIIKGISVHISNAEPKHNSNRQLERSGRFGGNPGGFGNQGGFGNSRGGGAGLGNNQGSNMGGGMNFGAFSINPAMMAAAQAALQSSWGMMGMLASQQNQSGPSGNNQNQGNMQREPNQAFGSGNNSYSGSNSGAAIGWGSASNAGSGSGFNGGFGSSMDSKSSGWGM
- protocol notes: Kd (EC50 corrected by depletion factor)
experimental readout: Kd (nM)
Unit nM implied. Number only.

Inquiry: So what does the record say about Kd for UAUUUAU ?
Reply text: 1320

---

- system tested: ZRANB2 (UniProt O95218)
- Sequence: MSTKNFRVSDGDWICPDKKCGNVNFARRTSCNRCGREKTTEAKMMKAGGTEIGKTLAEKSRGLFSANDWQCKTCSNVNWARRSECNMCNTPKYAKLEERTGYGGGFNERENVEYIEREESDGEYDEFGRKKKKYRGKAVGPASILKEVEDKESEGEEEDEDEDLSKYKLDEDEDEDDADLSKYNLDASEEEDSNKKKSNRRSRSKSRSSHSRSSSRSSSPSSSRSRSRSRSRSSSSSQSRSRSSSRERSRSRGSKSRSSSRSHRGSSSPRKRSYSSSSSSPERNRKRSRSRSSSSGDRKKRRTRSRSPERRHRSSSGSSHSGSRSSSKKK
- protocol notes: EC50 of free RNA motif oligo competing protein binding to immobilised probe
experimental readout: EC50 (µM)
The reply should be a number in µM, with the unit left off.

Inquiry: Would you mind telling me what EC50 value was observed for AAUAAA ?
Reply text: 1.9

---

- system tested: FASTKD2 (UniProt Q9NYY8)
- Sequence: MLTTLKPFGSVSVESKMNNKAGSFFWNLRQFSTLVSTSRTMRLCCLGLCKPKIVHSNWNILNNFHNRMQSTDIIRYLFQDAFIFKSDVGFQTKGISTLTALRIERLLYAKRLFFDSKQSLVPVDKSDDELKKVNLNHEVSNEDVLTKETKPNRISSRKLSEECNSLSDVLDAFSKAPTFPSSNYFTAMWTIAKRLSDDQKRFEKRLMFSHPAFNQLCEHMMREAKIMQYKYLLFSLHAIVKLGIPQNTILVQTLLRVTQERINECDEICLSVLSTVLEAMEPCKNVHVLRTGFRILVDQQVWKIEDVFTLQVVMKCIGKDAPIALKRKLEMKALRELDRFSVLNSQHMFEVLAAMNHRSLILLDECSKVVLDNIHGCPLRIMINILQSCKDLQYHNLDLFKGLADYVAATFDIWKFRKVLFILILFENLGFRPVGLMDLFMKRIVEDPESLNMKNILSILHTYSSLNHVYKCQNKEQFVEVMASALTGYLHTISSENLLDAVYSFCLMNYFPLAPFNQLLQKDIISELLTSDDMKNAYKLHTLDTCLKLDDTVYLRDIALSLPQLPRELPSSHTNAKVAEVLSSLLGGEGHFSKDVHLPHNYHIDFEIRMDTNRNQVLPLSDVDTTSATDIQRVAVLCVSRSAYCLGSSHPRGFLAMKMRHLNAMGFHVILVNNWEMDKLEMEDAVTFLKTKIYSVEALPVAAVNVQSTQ
- protocol notes: EC50 of free RNA motif oligo competing protein binding to immobilised probe
experimental readout: pEC50
The meaning of pEC50 here: minus log10 of the concentration in molar units.

Inquiry: Param item = UAUUUAU ; retrieve measured pEC50.
Reply text: 5.10

---

Reported values of Kd for individual entries
- system tested: ISY1 (UniProt Q9ULR0)
- Sequence: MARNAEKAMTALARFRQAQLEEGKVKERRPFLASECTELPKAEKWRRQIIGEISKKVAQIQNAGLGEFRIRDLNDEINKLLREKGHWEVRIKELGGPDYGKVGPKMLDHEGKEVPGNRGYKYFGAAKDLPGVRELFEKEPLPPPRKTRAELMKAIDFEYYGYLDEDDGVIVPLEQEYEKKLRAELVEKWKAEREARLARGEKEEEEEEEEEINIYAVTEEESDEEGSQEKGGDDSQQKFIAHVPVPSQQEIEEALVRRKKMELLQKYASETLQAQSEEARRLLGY
- protocol notes: Kd (EC50 corrected by depletion factor)

{"columns": ["sequence record", "Kd"],
 "data": [
  ["AAUAAA", "198 nM"]
]}

Shifting focus to the sequence that follows.
Inquiry: So what's the measured Kd for this one? UAUUUAU
Reply text: 414 nM

---

- system tested: MSI2 (UniProt Q96DH6)
- Sequence (Q96DH6 whole entry): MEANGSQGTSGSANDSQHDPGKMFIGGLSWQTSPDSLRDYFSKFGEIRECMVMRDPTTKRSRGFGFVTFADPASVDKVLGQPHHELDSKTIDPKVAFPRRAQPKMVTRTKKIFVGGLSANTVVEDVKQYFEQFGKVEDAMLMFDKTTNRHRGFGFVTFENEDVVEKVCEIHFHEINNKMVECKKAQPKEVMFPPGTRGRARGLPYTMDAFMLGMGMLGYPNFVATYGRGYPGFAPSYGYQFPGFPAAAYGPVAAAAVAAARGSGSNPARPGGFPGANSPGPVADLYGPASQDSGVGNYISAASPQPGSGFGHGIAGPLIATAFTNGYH
- protocol notes: Kd (EC50 corrected by depletion factor)
Listing of recorded pKd by entry.
Convention used: pKd is expressed as -log10 of the molar concentration.

{"columns": ["sequence record", "experimental readout", "obs value"],
 "data": [
  ["AAUAAA", "pKd", 6.98]
]}

# input for lookup
Inquiry: # input sequence: UAUUUAU ; wanted: its pKd
Reply text: 6.32

---

- system tested: MRPL1 (UniProt Q9BYD6)
- protocol notes: EC50 of free RNA motif oligo competing protein binding to immobilised probe
experimental readout: pEC50
// returns pEC50 (minus log10 of molar concentration), number only

Inquiry: Any idea what its pEC50 is? The sequence is CUGUCCU
Reply text: 6.59

---

- system tested: MCM4 (UniProt P33991)
- Sequence: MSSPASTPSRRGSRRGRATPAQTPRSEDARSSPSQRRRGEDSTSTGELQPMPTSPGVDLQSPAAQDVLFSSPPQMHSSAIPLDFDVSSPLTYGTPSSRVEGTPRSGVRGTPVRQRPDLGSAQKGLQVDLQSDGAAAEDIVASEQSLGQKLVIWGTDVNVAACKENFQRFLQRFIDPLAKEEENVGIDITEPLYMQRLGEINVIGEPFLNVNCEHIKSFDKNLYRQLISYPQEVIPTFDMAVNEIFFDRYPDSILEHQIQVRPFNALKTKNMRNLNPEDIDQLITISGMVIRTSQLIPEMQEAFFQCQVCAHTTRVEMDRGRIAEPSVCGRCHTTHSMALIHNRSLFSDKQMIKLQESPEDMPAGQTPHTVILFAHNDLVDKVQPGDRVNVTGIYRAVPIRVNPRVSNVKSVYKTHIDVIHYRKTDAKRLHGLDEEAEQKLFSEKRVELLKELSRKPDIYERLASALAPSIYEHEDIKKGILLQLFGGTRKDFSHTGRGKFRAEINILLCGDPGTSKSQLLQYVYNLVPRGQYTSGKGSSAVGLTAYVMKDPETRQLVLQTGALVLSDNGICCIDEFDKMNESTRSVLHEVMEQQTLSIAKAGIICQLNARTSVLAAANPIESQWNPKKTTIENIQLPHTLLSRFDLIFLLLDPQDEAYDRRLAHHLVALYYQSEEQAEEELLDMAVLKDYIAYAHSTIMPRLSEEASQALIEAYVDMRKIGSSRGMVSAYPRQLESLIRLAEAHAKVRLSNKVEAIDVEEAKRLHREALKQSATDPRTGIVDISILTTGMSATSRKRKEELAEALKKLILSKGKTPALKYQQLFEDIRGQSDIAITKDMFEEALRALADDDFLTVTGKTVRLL
- protocol notes: Kd (EC50 corrected by depletion factor)
experimental readout: pKd
API: returns pKd as number; meaning -log10 of concentration in mol/L.

Inquiry: Which pKd value is on record for AAUAAA ?
Reply text: 7.59
